test system: VIM-2-containing Pseudomonas aeruginosa strain (S-3779); experiment: Antibacterial activity evaluation test, MIC by broth microdilution (CLSI); type: cell-based; settings: Pseudomonas aeruginosa
This section presents compounds with their documented MIC values.
Just the number please, in µg/mL, no unit attached.

Some compounds with recorded MIC:
Chem smiles	MIC [µg/mL]
Nc1nc(/C(=N/OC2(C(=O)O)CC2)C(=O)N[C@@H]2C(=O)N3C[C@@](C(=O)O)(N4CCN(NC(=O)c5ccc(O)c(O)c5Cl)C4=O)S[C@H]23)cs1	1
CC(C)(O/N=C(\C(=O)N[C@@H]1C(=O)N2C[C@@](C(=O)O)(N3CCN(NC(=O)c4cc(Cl)c(O)c(O)c4Cl)C3=O)S[C@H]12)c1csc(N)n1)C(=O)O	0.5
CC(C)(O/N=C(\C(=O)N[C@@H]1C(=O)N2C[C@@](C(=O)O)(N3CCN(NC(=O)C(=O)N(O)CCNC(=O)c4ccc(O)c(O)c4Cl)C3=O)S[C@H]12)c1csc(N)n1)C(=O)O	1

get_value(item= "CC(C)(O/N=C(\C(=O)N[C@@H]1C(=O)N2C[C@@](C(=O)O)(N3CCN(NC(=O)C(=O)c4ccc(O)c(O)c4Cl)C3=O)S[C@H]12)c1csc(N)n1)C(=O)O" , readout=MIC) returns 0.25

Entry "CC(C)(O/N=C(\C(=O)N[C@@H]1C(=O)N2C[C@@](C(=O)O)(N3CCN(/N=C/C=N/NC(=O)NCCNC(=O)c4ccc(O)c(O)c4Cl)C3=O)S[C@H]12)c1csc(N)n1)C(=O)O" ; MIC = 0.5
